Biological target: full-length CHK2 (Homo sapiens, UniProt O96017)
Construct: full-length human CHK2 (residues 1 to 543); 6xHis (N); made in house; host or cells: Sf9 insect cells (baculovirus)
Sequence (O96017 whole entry, the tested form may be a part): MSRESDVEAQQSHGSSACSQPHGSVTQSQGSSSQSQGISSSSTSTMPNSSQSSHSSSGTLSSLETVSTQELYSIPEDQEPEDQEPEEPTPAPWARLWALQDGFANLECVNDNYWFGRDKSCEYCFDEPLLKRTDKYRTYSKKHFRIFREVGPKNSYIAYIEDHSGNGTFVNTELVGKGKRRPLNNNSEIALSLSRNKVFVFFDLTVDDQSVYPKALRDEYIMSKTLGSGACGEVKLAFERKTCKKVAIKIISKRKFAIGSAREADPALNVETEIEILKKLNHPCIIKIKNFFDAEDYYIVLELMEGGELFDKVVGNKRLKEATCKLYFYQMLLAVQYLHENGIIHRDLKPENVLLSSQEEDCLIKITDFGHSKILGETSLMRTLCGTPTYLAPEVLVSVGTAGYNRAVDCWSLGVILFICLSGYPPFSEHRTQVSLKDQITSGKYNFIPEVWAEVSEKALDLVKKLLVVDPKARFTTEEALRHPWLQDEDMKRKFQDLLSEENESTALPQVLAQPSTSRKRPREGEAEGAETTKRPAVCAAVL
Test: Microfluidic mobility shift assay for IC50 determination
Format: biochemical
Conditions: follow-up compounds from similarity search (Table 2); mean ± SD of triplicate
Method: In addition, percentage inhibition and IC50 values for all follow-up compounds were determined in triplicate using this assay. […] IC50 values were calculated from a four-parameter logistics fit of percentage inhibition versus concentration using the Studies package (from Dotmatics, Bishops Stortford, UK).
test.readout: pIC50
// scale note: pIC50 = -log10(conc_M); give the bare number

molecule	pIC50
c1coc(-c2ccnc3[nH]nc(C4CC4)c23)c1	5.14
c1cncc(-c2n[nH]c3ccnc(-c4cccs4)c23)c1	4.67
COc1ccc(CNC(=O)c2ccc3nccnc3c2)cc1	5.44

Now let's try a different one.
Recorded pIC50 for CCOC(=O)N1CCN(C(=O)Nc2ccc3nccnc3c2)CC1 with full-length CHK2 (Homo sapiens, UniProt O96017), please?
4.85

Cited source: paper PMC3680490
